Data credit: the Human Domainome abundance scans (Beltran et al. 2025)

B1: Membrane-associated guanylate kinase, WW and PDZ domain-containing protein 2, residues 601 to 682; numbered along this chain, Q86UL8 (parent)
chain: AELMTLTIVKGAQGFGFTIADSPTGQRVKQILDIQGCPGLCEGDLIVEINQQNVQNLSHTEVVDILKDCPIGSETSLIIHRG

Variants of: B1
Test: abundance fitness (aPCA) (normalised: wild type 0, dead -1); higher = more abundant; growth selection in yeast, the domain comes from the species named
Conditions: Homo sapiens
# abundance fitness >= -0.05 gives condition met, anything below gives condition not met

> print(dat)
   changes              group
1     I19Q  condition not met
2     G82D      condition met
3     Q51A      condition met
4     G39P  condition not met
5     I79T  condition not met
